# experiment_notes: Heat stability test (UV-absorption left after storage at 50° C.)
# Type: physicochemical
# cond: 50 days at 50° C. in the dark; 1.5% in C12-C15 alkyl benzoate oil (compound 12: 5% in water); 375 nm versus sample stored at room temperature
measured_property: Heat stability: UV-absorption left after 50 days

smiles_input	result
CCCCCCCCOC(=O)C(=CC=CN(CCCN(CCCCN(CCCN(C=CC=C(C(=O)OCCCCCCCC)S(=O)(=O)c1ccccc1)Cc1ccccc1)CCCN(C=CC=C(C(=O)OCCCCCCCC)S(=O)(=O)c1ccccc1)Cc1ccccc1)CCCN(C=CC=C(C(=O)OCCCCCCCC)S(=O)(=O)c1ccccc1)Cc1ccccc1)Cc1ccccc1)S(=O)(=O)c1ccccc1	++ (++ means >95% left)
CCCCCCCCOC(=O)C(=CC=CN(CCCC)CCN(C=CC=C(C(=O)OCCCCCCCC)S(=O)(=O)c1ccccc1)CCN(C=CC=C(C(=O)OCCCCCCCC)S(=O)(=O)c1ccccc1)CCCC)S(=O)(=O)c1ccccc1	++ (++ means >95% left)
CCCCCCCCOC(=O)C(=CC=CN(CCN(C=CC=C(C(=O)OCCCCCCCC)S(=O)(=O)c1ccccc1)Cc1ccccc1)CCN(C=CC=C(C(=O)OCCCCCCCC)S(=O)(=O)c1ccccc1)Cc1ccccc1)S(=O)(=O)c1ccccc1	++ (++ means >95% left)
